# tested-system: Cytochrome P450 1A2 (Homo sapiens) (UniProt P05177)
# Sequence (P05177 whole entry, looked up): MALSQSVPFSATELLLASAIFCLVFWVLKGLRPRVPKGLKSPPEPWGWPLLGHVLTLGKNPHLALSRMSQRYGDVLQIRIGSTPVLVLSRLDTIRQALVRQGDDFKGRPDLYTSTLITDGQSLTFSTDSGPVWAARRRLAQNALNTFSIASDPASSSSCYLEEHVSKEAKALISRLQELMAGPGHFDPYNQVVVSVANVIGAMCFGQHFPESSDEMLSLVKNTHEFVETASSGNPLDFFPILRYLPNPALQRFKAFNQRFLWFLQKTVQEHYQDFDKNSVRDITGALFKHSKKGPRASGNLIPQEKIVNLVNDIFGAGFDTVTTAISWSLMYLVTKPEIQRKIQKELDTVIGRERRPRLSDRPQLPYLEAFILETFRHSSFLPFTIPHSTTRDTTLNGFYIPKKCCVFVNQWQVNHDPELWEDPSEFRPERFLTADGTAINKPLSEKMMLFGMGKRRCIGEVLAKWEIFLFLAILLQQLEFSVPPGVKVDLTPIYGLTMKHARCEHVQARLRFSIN
# assay-explanation: Cytochrome panel assay with activity outcomes; note: % is set by controls: 0 for no effect and ±100 for the full control effect
# protocol-conditions: recombinant CYP, pro-luciferin dealkylation, luminescence, p450-cyp1a2; series mostly up to 57.1 µM
The whole screen tested about 16,000 compounds, of which about 5,700 (36%) were called active. About 24% were inconclusive and are not listed. Calls come from the whole dose curve; as a rule, active = well fitted curve in the direction sought with a large enough effect; inconclusive = small, poorly fitted or top-dose-only effect, or effect the other way; inactive = no such curve, though single readings can be large or run the other way. This is one part of the list.
Field 'call' accepts label 1 (active), label 0 (inactive)

*Q* Please indicate how the test categorized `CCC(=O)Nc1ccc(C(=O)NNC(=O)c2cccs2)cc1` .
*A* label 0

----------
# tested-system: Cytochrome P450 1A2 (Homo sapiens)
# assay-explanation: Cytochrome panel assay with activity outcomes; note: % is set by controls: 0 for no effect and ±100 for the full control effect
# protocol-conditions: recombinant CYP, pro-luciferin dealkylation, luminescence, p450-cyp1a2; series mostly up to 57.1 µM
Out of some 16,000 compounds screened, about 5,700 (36%) were called active. Another 24% or so got no clear call; they are omitted. The call rests on the fitted dose curve; in most records, active means well fitted curve in the direction sought with a large enough effect; inconclusive means small, poorly fitted or top-dose-only effect, or effect the other way; inactive means no such curve, though single readings can be large or run the other way. The list shows a part of the results.
Field 'call' accepts active, inactive

*Q* Please indicate how the test categorized Cc1cc(N2C(=O)C(O)=C(C(=O)c3ccco3)C2c2ccc(O)cc2)no1 (stereo not given) .
*A* inactive

*Q* Please indicate how the test categorized COc1ccc(CNCCC(c2ccc(OC(C)C)cc2)C(C)C)cc1OC (stereo not given) .
*A* inactive
